Biological target: Estrogen receptor (Rattus norvegicus) (UniProt P06211+Q62986)
Experiment: Relative binding affinity for estrogen receptor of rat uterine cytosol
Type: protein assay
TEST_READOUT: RBA

{"columns": ["COMPOUND", "RESULT"],
 "data": [
  ["CC(C)OCC[C@H]1C[C@]2(C)[C@@H](O)CC[C@H]2C2CCc3cc(O)ccc3[C@H]21 (single isomer, unassigned)", "15%"],
  ["CCCCO[C@H]1C[C@]2(C)[C@@H](O)CC[C@H]2[C@@H]2CCc3cc(O)ccc3[C@H]21", "2.1%"],
  ["CCCOC[C@H]1C[C@]2(C)[C@@H](O)CC[C@H]2[C@@H]2CCc3cc(O)ccc3[C@@H]12", "43%"],
  ["C[C@]12C[C@H](COCCF)[C@@H]3c4ccc(O)cc4CC[C@H]3[C@@H]1CC[C@@H]2O", "10%"],
  ["CCC(=O)C[C@H]1C[C@]2(C)[C@@H](O)CC[C@H]2C2CCc3cc(O)ccc3[C@H]21 (single isomer, unassigned)", "18%"],
  ["C[C@]12C[C@H](CCOCCF)[C@@H]3c4ccc(O)cc4CCC3[C@@H]1CC[C@@H]2O (single isomer, unassigned)", "16%"],
  ["CC(C)(C)OCC[C@H]1C[C@]2(C)[C@@H](O)CC[C@H]2C2CCc3cc(O)ccc3[C@H]21 (single isomer, unassigned)", "2.3%"],
  ["CCC(=O)CC[C@H]1C[C@]2(C)[C@@H](O)CC[C@H]2[C@@H]2CCc3cc(O)ccc3[C@@H]12", "3.7%"],
  ["CC(C)OCCC[C@H]1C[C@]2(C)[C@@H](O)CC[C@H]2[C@@H]2CCc3cc(O)ccc3[C@@H]12", "114%"],
  ["CCOCC[C@H]1C[C@]2(C)[C@@H](O)CC[C@H]2C2CCc3cc(O)ccc3[C@H]21 (single isomer, unassigned)", "31%"],
  ["CCOC(=S)C[C@H]1C[C@]2(C)[C@@H](O)CC[C@H]2C2CCc3cc(O)ccc3[C@H]21 (single isomer, unassigned)", "10%"]
]}

---

Target: Estrogen receptor beta (Homo sapiens)
Assay: Inhibition of [3H]E2 binding to human Estrogen receptor-beta ligand binding domain (LBD) expressed in Escherichia coli lysates
Decide by RBA: equal to or exceeding 80% means label 1, less means label 0.

{"columns": ["MOLECULE", "CATEGORY_LABEL"],
 "data": [
  ["COCC[C@H]1C[C@]2(C)[C@@H](O)CC[C@H]2C2CCc3cc(O)ccc3[C@H]21 (single isomer, unassigned)", "label 1"],
  ["C[C@]12C[C@H](COCCF)[C@@H]3c4ccc(O)cc4CC[C@H]3[C@@H]1CC[C@@H]2O", "label 0"],
  ["CCCOCC[C@H]1C[C@]2(C)[C@@H](O)CC[C@H]2C2CCc3cc(O)ccc3[C@H]21 (single isomer, unassigned)", "label 1"],
  ["CCCCOC[C@H]1C[C@]2(C)[C@@H](O)CC[C@H]2[C@@H]2CCc3cc(O)ccc3[C@@H]12", "label 1"],
  ["CCOC[C@H]1C[C@]2(C)[C@@H](O)CC[C@H]2[C@@H]2CCc3cc(O)ccc3[C@@H]12", "label 0"],
  ["C[C@]12C[C@H](CCOCCF)[C@@H]3c4ccc(O)cc4CCC3[C@@H]1CC[C@@H]2O (single isomer, unassigned)", "label 0"],
  ["CC(C)(C)OCC[C@H]1C[C@]2(C)[C@@H](O)CC[C@H]2C2CCc3cc(O)ccc3[C@H]21 (single isomer, unassigned)", "label 0"],
  ["C[C@]12C[C@H](CCCOCCF)[C@@H]3c4ccc(O)cc4CC[C@H]3[C@@H]1CC[C@@H]2O", "label 1"],
  ["COCCC[C@H]1C[C@]2(C)[C@@H](O)CC[C@H]2[C@@H]2CCc3cc(O)ccc3[C@@H]12", "label 1"],
  ["COC[C@H]1C[C@]2(C)C(O)CC[C@H]2[C@@H]2CCc3cc(O)ccc3[C@@H]12 (stereo partly specified)", "label 1"]
]}

---

System: Ishikawa
Assay: Inhibitory constant against stimulation of alkaline phosphatase activity in Ishikawa cells
Type: functional, cell-based, Homo sapiens
Listed next: entries and their corresponding Ki.
TEST_READOUT: Ki (nM)

{"columns": ["COMPOUND", "TEST_READOUT", "NUMERIC_READOUT"],
 "data": [
  ["C[C@]12C[C@H](CCCOCCF)[C@@H]3c4ccc(O)cc4CC[C@H]3[C@@H]1CC[C@@H]2O", "Ki", 1.1],
  ["CC(C)(C)OCC[C@H]1C[C@]2(C)[C@@H](O)CC[C@H]2C2CCc3cc(O)ccc3[C@H]21 (single isomer, unassigned)", "Ki", 20],
  ["CC(C)OCC[C@H]1C[C@]2(C)[C@@H](O)CC[C@H]2C2CCc3cc(O)ccc3[C@H]21 (single isomer, unassigned)", "Ki", 0.4],
  ["COCCC[C@H]1C[C@]2(C)[C@@H](O)CC[C@H]2[C@@H]2CCc3cc(O)ccc3[C@@H]12", "Ki", 0.3],
  ["CC(C)(C)OCCC[C@H]1C[C@]2(C)[C@@H](O)CC[C@H]2[C@@H]2CCc3cc(O)ccc3[C@@H]12", "Ki", 0.09],
  ["CC(C)(C)COC(=O)C[C@H]1C[C@]2(C)[C@@H](O)CC[C@H]2C2CCc3cc(O)ccc3[C@H]21 (single isomer, unassigned)", "Ki", 5.2],
  ["CCC(=O)CC[C@H]1C[C@]2(C)[C@@H](O)CC[C@H]2[C@@H]2CCc3cc(O)ccc3[C@@H]12", "Ki", 16],
  ["CCCOC[C@H]1C[C@]2(C)[C@@H](O)CC[C@H]2[C@@H]2CCc3cc(O)ccc3[C@@H]12", "Ki", 0.3],
  ["CCCCOC[C@H]1C[C@]2(C)[C@@H](O)CC[C@H]2[C@@H]2CCc3cc(O)ccc3[C@@H]12", "Ki", 0.1],
  ["CCCOCC[C@H]1C[C@]2(C)[C@@H](O)CC[C@H]2C2CCc3cc(O)ccc3[C@H]21 (single isomer, unassigned)", "Ki", 0.3],
  ["CCOC(=S)C[C@H]1C[C@]2(C)[C@@H](O)CC[C@H]2C2CCc3cc(O)ccc3[C@H]21 (single isomer, unassigned)", "Ki", 2.7],
  ["CCCOC(=O)C[C@H]1C[C@]2(C)[C@@H](O)CC[C@H]2C2CCc3cc(O)ccc3[C@H]21 (single isomer, unassigned)", "Ki", 1],
  ["CC(C)OC(=O)C[C@H]1C[C@]2(C)[C@@H](O)CC[C@H]2C2CCc3cc(O)ccc3[C@H]21 (single isomer, unassigned)", "Ki", 2.1]
]}

---

Target: Estrogen receptor (Homo sapiens)
Assay: Inhibition of [3H]E2 binding to human Estrogen receptor-alpha ligand binding domain (LBD) expressed in Escherichia coli lysates
Known RBA of a selection of molecules

{"columns": ["MOLECULE", "MEASUREMENT_TARGET", "RBA / %"],
 "data": [
  ["CCCOCC[C@H]1C[C@]2(C)[C@@H](O)CC[C@H]2C2CCc3cc(O)ccc3[C@H]21 (single isomer, unassigned)", "Estrogen receptor (Homo sapiens)", 54],
  ["COC[C@H]1C[C@]2(C)C(O)CC[C@H]2[C@@H]2CCc3cc(O)ccc3[C@@H]12 (stereo not given in full)", "Estrogen receptor (Homo sapiens)", 114],
  ["CC(C)(C)OCC[C@H]1C[C@]2(C)[C@@H](O)CC[C@H]2C2CCc3cc(O)ccc3[C@H]21 (single isomer, unassigned)", "Estrogen receptor (Homo sapiens)", 5],
  ["C[C@]12C[C@H](CCOCCF)[C@@H]3c4ccc(O)cc4CCC3[C@@H]1CC[C@@H]2O (single isomer, unassigned)", "Estrogen receptor (Homo sapiens)", 112],
  ["COCCC[C@H]1C[C@]2(C)[C@@H](O)CC[C@H]2[C@@H]2CCc3cc(O)ccc3[C@@H]12", "Estrogen receptor (Homo sapiens)", 159],
  ["CC(C)OCC[C@H]1C[C@]2(C)[C@@H](O)CC[C@H]2C2CCc3cc(O)ccc3[C@H]21 (single isomer, unassigned)", "Estrogen receptor (Homo sapiens)", 45],
  ["CCOC[C@H]1C[C@]2(C)[C@@H](O)CC[C@H]2[C@@H]2CCc3cc(O)ccc3[C@@H]12", "Estrogen receptor (Homo sapiens)", 70],
  ["CC(C)OCCC[C@H]1C[C@]2(C)[C@@H](O)CC[C@H]2[C@@H]2CCc3cc(O)ccc3[C@@H]12", "Estrogen receptor (Homo sapiens)", 220],
  ["C[C@]12C[C@H](CCCOCCF)[C@@H]3c4ccc(O)cc4CC[C@H]3[C@@H]1CC[C@@H]2O", "Estrogen receptor (Homo sapiens)", 96],
  ["CCOCCC[C@H]1C[C@]2(C)[C@@H](O)CC[C@H]2[C@@H]2CCc3cc(O)ccc3[C@@H]12", "Estrogen receptor (Homo sapiens)", 87]
]}

meta.source: ChEMBL document CHEMBL1142700
